# Assay details: Pharmacokinetic test in monkeys
# Type: in vivo, cynomolgus monkeys
# Protocol conditions: male, cynomolgus monkey, iv; monkeys, i.v. (1 mg/kg), plasma
Endpoint label: AUC(0-t) (ng·h/mL)
Give bare numbers, in ng·h/mL.

Please look at this molecule and report its AUC(0-t): `Cn1cc(C(=O)Nc2ccc(N3CCN(Cc4ccc5nc(C(F)F)c(=O)[nH]c5c4F)CC3)c(F)n2)cn1`
47100

----------
# System: MDA-MB-436 cells
# Assay details: MDA-MB-436 cell activity test (CellTiter-Glo, 7 days)
# Format: cell-based
# Protocol conditions: Homo sapiens, MDA-MB-436, 168 h; 7 days incubation
Assignment: determine reported pIC50 for the given molecules.
Give bare numbers, as −log10 of the molar value.

Check out these entries, answers already filled in.
>>> endpoint_value("Cc1nc2ccc(CN3CCN(c4ccc(C(=O)N[C@@H]5C[C@@H]5F)nc4F)CC3)c(F)c2[nH]c1=O")
7.48
>>> endpoint_value("Cc1nc2ccc(CN3CCN(c4ccc(C(=O)Nc5cnn(C)c5)nc4F)CC3)c(F)c2[nH]c1=O")
8.46

Using known records, supply pIC50 for `Cn1cc(NC(=O)c2ccc(N3CCN(Cc4ccc5nc(C(F)F)c(=O)[nH]c5c4F)CC3)c(F)n2)cn1`
8.17
